Hey, just so you know, these numbers are from patent US6465654B2.

tested on: interferon; assay: Interferon induction in mice; format: in vivo; details: mouse serum, oral 1 mg/kg, 4 hr
Experimental readout: Interferon induction in mice

{"Compound": "CC(=O)OC(C)c1nc2c(N)nc3ccccc3c2n1CC(C)C.O (centres unmarked)", "Interferon induction in mice": "<150 Reference Units/mL"}
{"Compound": "CC(C)Cn1c(CN2CCOCC2)nc2c(N)nc3ccccc3c21", "Interferon induction in mice": "<18 Reference Units/mL"}
{"Compound": "COC(C)c1nc2c(N)nc3ccccc3c2n1CC(C)C (centres unmarked)", "Interferon induction in mice": "<56 Reference Units/mL"}

Next item in the queue.
Test item `CC(C)Cn1c(CCl)nc2c(N)nc3ccccc3c21.Cl` ; interferon; reported Interferon induction in mice was <120 Reference Units/mL

###

system: interferon; test: Interferon induction in mice; format: in vivo; details: mouse serum, oral 1 mg/kg, 4 hr
Experimental readout: Interferon induction in mice

{"Chem smiles": "COCCn1c(COC)nc2c(N)nc3ccccc3c21", "Interferon induction in mice": "<120 Reference Units/mL"}
{"Chem smiles": "CCOCc1nc2c(N)nc3ccccc3c2n1CC(C)C", "Interferon induction in mice": "110 Reference Units/mL"}

Next item in the queue.
Lab book: Interferon induction in mice of `CC(C)Cn1c(CN=[N+]=[N-])nc2c(N)nc3ccccc3c21` noted as 71 Reference Units/mL

###

system: interferon-α; test: Interferon-α induction in human cells, PBM; assay type: cell-based; conditions: dose concentration 0.05 μg/mL, 24 hours
Consider the following molecules and their measured Interferon-α induction readings.

Example entries and their recorded answers appear below.
{"Molecule": "COCc1nc2c(N)nc3ccccc3c2n1CC(C)(C)O [Example 96]", "Test system": "interferon-α", "Experimental readout": "Interferon-α induction", "Observed value": "44 α Reference Units/mL"}
{"Molecule": "COCc1nc2c(N)nc3ccccc3c2n1CC(C)C [Example 34]", "Test system": "interferon-α", "Experimental readout": "Interferon-α induction", "Observed value": "<4 α Reference Units/mL"}

Lab book: Interferon-α induction of Nc1nc2ccccc2c2c1nc(CO)n2Cc1ccccc1 [Example 27] noted as 24 α Reference Units/mL

Lab book: Interferon-α induction of CC(C)Cn1c(C(C)O)nc2c(N)nc3ccccc3c21 (stereo not shown) [Example 20] noted as 190 α Reference Units/mL

Lab book: Interferon-α induction of CCOCc1nc2c(N)nc3ccccc3c2n1CCC(C)C.Cl [Example 109] noted as 1000 α Reference Units/mL

Lab book: Interferon-α induction of CC(C)Cn1c(CCl)nc2c(N)nc3ccccc3c21.Cl [Example 10] noted as 28 α Reference Units/mL

Lab book: Interferon-α induction of CC(C)Cn1c(CO)nc2c(N)nc3ccccc3c21 [Example 9] noted as 16 α Reference Units/mL

Lab book: Interferon-α induction of CC(=O)OC(C)c1nc2c(N)nc3ccccc3c2n1CC(C)C.O (stereo not shown) [Example 69] noted as <6.4 α Reference Units/mL

Lab book: Interferon-α induction of CSCc1nc2c(N)nc3ccccc3c2n1Cc1ccccc1 [Example 31] noted as 18 α Reference Units/mL

Lab book: Interferon-α induction of CCCCn1c(COCC)nc2c(N)nc3ccccc3c21 [Example 117] noted as 360 α Reference Units/mL
